B1: FAM189A2 (parent)
chain: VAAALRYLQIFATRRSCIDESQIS

Variants of: B1
experiment description: protein stability index of a GFP-peptide fusion (GPS, HEK-293T) (PSI 1-6); higher = more stable;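 note: lentivirally expressed fusions sorted by FACS into six bins by GFP to DsRed ratio, PSI derived from sequencing read proportions per bin multiplied by bin number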
conditions: c terminus: a fixed tail appended
protein stability index reference

C17T = 2.17

Just so you know, measured protein stability index for I10R came out at 2.55

variant R6P , protein stability index observed: 2.76

E20W has a reported protein stability index of 4.07

Sure, the documented protein stability index for Y7G is 2.02

Per the record, Y7Q has protein stability index of 2.64

Quick note, protein stability index for D19V landed at 3.57

Entry under test: I23S . Its protein stability index was 1.84

Notebook: D19Q , protein stability index read as 1.13

Consider L8N . Its measured protein stability index is 2.14

According to the records, this variant I23T displays protein stability index of 2.18

L5V yielded protein stability index of 4.11

protein stability index reading for S16G : 1.41

GET /value?item= S16K &field=protein stability index returns 2.15

variant E20D , protein stability index observed: 2.1

protein stability index in this record for A2F : 1.74

Value of measured protein stability index for the entry D19P : 1.77

So, S21N ? Its protein stability index was 1.73

Form field protein stability index, entry I10K : 2.73
